- System: K24384-001-R-PDC complex spheroid viability
- assay-method-text: Anticancer human tumor K24384-001-R-PDC patient-derived pancreatic adenocarcinoma cell line growth inhibition
- experimental-setup: second compound 0.316 µM; first compound 0.03 µM; active compounds read low
Threshold 90%. viability, T/C below it: rule met. viability, T/C at it or above: rule not met.

I'd appreciate it if you could check whether Nc1ncn(C2CC(O)C(CO)S2)c(=O)n1 (stereo not drawn) + NC1CC1c1ccc(-c2cccc(O)c2)cc1 has viability, T/C smaller than 90%.
rule met

I'd appreciate it if you could check whether O=C(C=Cc1cccc(S(=O)(=O)Nc2ccccc2)c1)NO + NC1CC1c1ccc(-c2cccc(O)c2)cc1 has viability, T/C smaller than 90%.
rule not met

I'd appreciate it if you could check whether Nc1ccn(C2OC(CO)C(O)C2(F)F)c(=O)n1 (stereo not drawn) + NC1CCC(NC2CC2c2ccccc2)CC1 has viability, T/C smaller than 90%.
rule met

I'd appreciate it if you could check whether Nc1ncn(C2CC(O)C(CO)S2)c(=O)n1 (stereo not drawn) + NC1CCC(NC2CC2c2ccccc2)CC1 has viability, T/C smaller than 90%.
rule met

I'd appreciate it if you could check whether CCc1c2c(nc3ccc(O)cc13)-c1cc3c(c(=O)n1C2)COC(=O)[C@]3(O)CC + NC1CC1c1ccc(-c2cccc(O)c2)cc1 has viability, T/C smaller than 90%.
rule met

I'd appreciate it if you could check whether NS(=O)(=O)OCC1CC(n2ccc3c(NC4CCc5ccccc54)ncnc32)CC1O (stereo not drawn) + NC1CCC(NC2CC2c2ccccc2)CC1 has viability, T/C smaller than 90%.
rule not met

* * *

Assign viability, T/C to each entry below.
- Test system: K24384-001-R-PDC complex spheroid viability
- assay-method-text: Anticancer human tumor K24384-001-R-PDC cell line growth inhibition;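 note: spheroids exposed to agents for seven days before luminescence viability reading; 100% = DMSO vehicle control viability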
- experimental-setup: second compound 1 µM; first compound 0.03 µM; active compounds read low
Reply with just the number (in %).

What the record says about Nc1ccn(C2OC(CO)C(O)C2(F)F)c(=O)n1 (configuration not stated) + NC1CC1c1ccc(-c2cccc(O)c2)cc1 : viability, T/C is 53.2

What the record says about CCc1c2c(nc3ccc(O)cc13)-c1cc3c(c(=O)n1C2)COC(=O)[C@]3(O)CC + NC1CC1c1ccc(-c2cccc(O)c2)cc1 : viability, T/C is 7.42

What the record says about Nc1ncn(C2CC(O)C(CO)S2)c(=O)n1 (configuration not stated) + NC1CC1c1ccc(-c2cccc(O)c2)cc1 : viability, T/C is 87.8

What the record says about O=C(C=Cc1cccc(S(=O)(=O)Nc2ccccc2)c1)NO + NC1CC1c1ccc(-c2cccc(O)c2)cc1 : viability, T/C is 113

What the record says about NS(=O)(=O)OCC1CC(n2ccc3c(NC4CCc5ccccc54)ncnc32)CC1O (configuration not stated) + NC1CCC(NC2CC2c2ccccc2)CC1 : viability, T/C is 138

What the record says about CCN(c1cc(-c2ccc(CN3CCOCC3)cc2)cc(C(=O)NCc2c(C)cc(C)[nH]c2=O)c1C)C1CCOCC1 + NC1CC1c1ccc(-c2cccc(O)c2)cc1 : viability, T/C is 112

What the record says about CCc1c2c(nc3ccc(O)cc13)-c1cc3c(c(=O)n1C2)COC(=O)[C@]3(O)CC + NC1CCC(NC2CC2c2ccccc2)CC1 : viability, T/C is 9.09

* * *

Assign viability, T/C to each entry below.
- Test system: K24384-001-R-PDC complex spheroid viability
- assay-method-text: Anticancer human tumor K24384-001-R-PDC cell line growth inhibition;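 note: spheroids exposed to agents for seven days before luminescence viability reading; 100% = DMSO vehicle control viability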
- experimental-setup: second compound 10 µM; first compound 0.01 µM; active compounds read low

What the record says about CC(C)CC(NC(=O)C(Cc1ccccc1)NC(=O)c1cnccn1)B(O)O (stereo not given) + NC1CC1c1ccc(-c2cccc(O)c2)cc1 : viability, T/C is 1.83%

What the record says about CC(C)CC(NC(=O)C(Cc1ccccc1)NC(=O)c1cnccn1)B(O)O (stereo not given) + NC1CCC(NC2CC2c2ccccc2)CC1 : viability, T/C is 0.22%

What the record says about CC(C)CC(NC(=O)CNC(=O)c1cc(Cl)ccc1Cl)B1OC(=O)CC(CC(=O)O)(C(=O)O)O1 (stereo not given) + NC1CCC(NC2CC2c2ccccc2)CC1 : viability, T/C is 22.8%

What the record says about COc1cc(Nc2ncc3c(n2)-c2ccc(Cl)cc2C(c2c(F)cccc2OC)=NC3)ccc1C(=O)O + NC1CC1c1ccc(-c2cccc(O)c2)cc1 : viability, T/C is 62.4%

What the record says about CC(C)CC(NC(=O)CNC(=O)c1cc(Cl)ccc1Cl)B1OC(=O)CC(CC(=O)O)(C(=O)O)O1 (stereo not given) + NC1CC1c1ccc(-c2cccc(O)c2)cc1 : viability, T/C is 28.1%

* * *

- Test system: K24384-001-R-PDC complex spheroid viability
- assay-method-text: Anticancer human tumor K24384-001-R-PDC cell line growth inhibition;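 note: spheroids exposed to agents for seven days before luminescence viability reading; 100% = DMSO vehicle control viability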
- experimental-setup: second compound 1 µM; first compound 0.316 µM; active compounds read low
Assign viability, T/C to each entry below.
Reply with just the number (in %).

What the record says about CC(C)c1c(-c2ccccc2)nc2c(C#N)c[nH]n2c1=O + NC1CCC(NC2CC2c2ccccc2)CC1 : viability, T/C is 96.3

What the record says about CC1(C)CCC(CN2CCN(c3ccc(C(=O)NS(=O)(=O)c4ccc(NCC5CCOCC5)c([N+](=O)[O-])c4)c(Oc4cnc5[nH]ccc5c4)c3)CC2)=C(c2ccc(Cl)cc2)C1 + NC1CC1c1ccc(-c2cccc(O)c2)cc1 : viability, T/C is 63.8

What the record says about COc1cc(Nc2ncc3c(n2)-c2ccc(Cl)cc2C(c2c(F)cccc2OC)=NC3)ccc1C(=O)O + NC1CC1c1ccc(-c2cccc(O)c2)cc1 : viability, T/C is 43.2

What the record says about O=C(c1cc(Cc2n[nH]c(=O)c3ccccc23)ccc1F)N1CCN(C(=O)C2CC2)CC1 + NC1CCC(NC2CC2c2ccccc2)CC1 : viability, T/C is 75.3

What the record says about CC1COCCN1c1cc(C2(S(C)(=N)=O)CC2)nc(-c2ccnc3[nH]ccc23)n1 (configuration not stated) + NC1CC1c1ccc(-c2cccc(O)c2)cc1 : viability, T/C is 76.5

What the record says about CC(C)c1c(-c2ccccc2)nc2c(C#N)c[nH]n2c1=O + NC1CC1c1ccc(-c2cccc(O)c2)cc1 : viability, T/C is 72.6

What the record says about CC1(C)CCC(CN2CCN(c3ccc(C(=O)NS(=O)(=O)c4ccc(NCC5CCOCC5)c([N+](=O)[O-])c4)c(Oc4cnc5[nH]ccc5c4)c3)CC2)=C(c2ccc(Cl)cc2)C1 + NC1CCC(NC2CC2c2ccccc2)CC1 : viability, T/C is 81.6

* * *

- System: K24384-001-R-PDC complex spheroid viability
- assay-method-text: Anticancer human tumor K24384-001-R-PDC cell line growth inhibition;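 note: spheroids exposed to agents for seven days before luminescence viability reading; 100% = DMSO vehicle control viability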
- experimental-setup: second compound 1 µM; first compound 0.03 µM; active compounds read low
outcome-measure: viability, T/C (%)
Reply with just the number (in %).

What the record says about Nc1ncn(C2CC(O)C(CO)S2)c(=O)n1 (centres undefined) + NC1CCC(NC2CC2c2ccccc2)CC1 : viability, T/C is 78.5

What the record says about Nc1ccccc1NC(=O)c1ccc(CNC(=O)OCc2cccnc2)cc1 + NC1CC1c1ccc(-c2cccc(O)c2)cc1 : viability, T/C is 112

What the record says about COc1cc(C2c3cc4c(cc3C(OC3OC5COC(C)OC5C(O)C3O)C3COC(=O)C23)OCO4)cc(OC)c1O (centres undefined) + NC1CCC(NC2CC2c2ccccc2)CC1 : viability, T/C is 97.2

What the record says about NS(=O)(=O)OCC1CC(n2ccc3c(NC4CCc5ccccc54)ncnc32)CC1O (centres undefined) + NC1CC1c1ccc(-c2cccc(O)c2)cc1 : viability, T/C is 155

What the record says about Nc1ccn(C2OC(CO)C(O)C2(F)F)c(=O)n1 (centres undefined) + NC1CCC(NC2CC2c2ccccc2)CC1 : viability, T/C is 50.4

What the record says about COc1cc(C2c3cc4c(cc3C(OC3OC5COC(C)OC5C(O)C3O)C3COC(=O)C23)OCO4)cc(OC)c1O (centres undefined) + NC1CC1c1ccc(-c2cccc(O)c2)cc1 : viability, T/C is 77.5

What the record says about Nc1ccccc1NC(=O)c1ccc(CNC(=O)OCc2cccnc2)cc1 + NC1CCC(NC2CC2c2ccccc2)CC1 : viability, T/C is 89

What the record says about O=C(C=Cc1cccc(S(=O)(=O)Nc2ccccc2)c1)NO + NC1CCC(NC2CC2c2ccccc2)CC1 : viability, T/C is 121

What the record says about CCN(c1cc(-c2ccc(CN3CCOCC3)cc2)cc(C(=O)NCc2c(C)cc(C)[nH]c2=O)c1C)C1CCOCC1 + NC1CCC(NC2CC2c2ccccc2)CC1 : viability, T/C is 84.3
